# Assay target: UniProtKB P43116
# Sequence (P43116 whole entry): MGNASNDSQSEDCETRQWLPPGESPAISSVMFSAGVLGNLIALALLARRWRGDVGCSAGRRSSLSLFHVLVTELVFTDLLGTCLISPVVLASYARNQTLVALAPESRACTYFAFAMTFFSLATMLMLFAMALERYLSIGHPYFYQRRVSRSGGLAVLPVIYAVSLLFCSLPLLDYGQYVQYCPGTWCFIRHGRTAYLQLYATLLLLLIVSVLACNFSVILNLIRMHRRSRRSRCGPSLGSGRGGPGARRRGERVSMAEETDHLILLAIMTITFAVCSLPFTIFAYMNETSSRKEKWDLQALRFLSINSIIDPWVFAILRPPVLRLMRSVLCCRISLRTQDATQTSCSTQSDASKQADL
# Measurement protocol: hEP2 cAMP Assay
I'd appreciate it if you could supply pIC50 values for the items below.
One number for each entry, as −log10 of the molar value.

Study these solved cases before continuing.
Molecule	Endpoint value
CC(C)Oc1cc(-c2cc(NCCc3ccc4sccc4c3F)ncn2)ccc1CC(=O)O	6.11
CCOc1cc2c(cc1CCNc1cc(-c3ccc(CC(=O)O)c(CC(C)C)c3)ncn1)OCCO2	7.24
CCOc1cc(-c2cc(NCCc3c(OC)cc4c(c3C)OCCO4)ncn2)ccc1CC(=O)O	7.40
CCOc1cc(-c2cc(NCCc3cc4c(cc3OC(F)F)OCCO4)ncn2)sc1C(=O)O	7.24
COc1cc2c(c(F)c1CCNc1cc(-c3ccc(CC(=O)O)c(OC(F)F)c3)ncn1)OCCO2	6.65

Your task in this section: give pIC50 for each listed record.
1. COc1cc2c(c(C)c1CCNc1cc(-c3ccc(C(=O)O)c(OC4CCC4)c3)ncn1)OCCO2
2. CCCc1cc(-c2cc(NCCc3cc4c(cc3OC)OCCO4)ncn2)ccc1C(C)C(=O)O (racemic)

Output:
[9.00, 6.13]

Value source: BindingDB's records for patent US11839613
